Target: hKCNK3 (Homo sapiens, UniProt O14649)
Construct: expressed in transfected cells; host or cells: Xenopus laevis oocytes injected with cRNA (plasmid pIRES-CD8, gift of Dr. Fabrice Duprat)
Sequence (O14649 whole entry): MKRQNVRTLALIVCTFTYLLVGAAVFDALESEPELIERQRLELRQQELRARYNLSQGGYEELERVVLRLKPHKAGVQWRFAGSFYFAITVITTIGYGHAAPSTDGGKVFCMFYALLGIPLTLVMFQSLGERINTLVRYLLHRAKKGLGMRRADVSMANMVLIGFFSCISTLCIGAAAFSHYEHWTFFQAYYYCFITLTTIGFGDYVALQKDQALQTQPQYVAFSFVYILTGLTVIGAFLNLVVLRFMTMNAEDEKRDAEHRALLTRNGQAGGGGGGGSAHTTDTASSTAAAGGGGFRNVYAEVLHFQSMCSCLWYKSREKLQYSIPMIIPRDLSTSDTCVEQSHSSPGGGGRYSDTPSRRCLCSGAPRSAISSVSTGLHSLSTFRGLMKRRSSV
Assay: Two-electrode voltage clamp on Xenopus laevis oocytes expressing hKCNK3
Assay type: cell-based
Settings: Xenopus oocytes, current at +50 mV normalized to pre-application; read-out: IC50 on hKCNK3
Decide using IC50 alone. Strictly below 50 µM: 1 (yes). Equal to or above 50 µM: 0 (no).

compound="CC(C)CNC(=O)/C=C/C=C/c1ccc2c(c1)OCO2 [1c, piperlonguminine]" answer_label="0 (no)"
compound="O=C(/C=C/C=C/CC/C=C/c1ccc2c(c1)OCO2)N1CCCCC1 [3a, dehydropipernonaline]" answer_label="1 (yes)"
compound="O=C(/C=C/C=C/CCCCCC/C=C/c1ccc2c(c1)OCO2)N1CCCC1 [4b, brachyamide A]" answer_label="1 (yes)"

Query compound follows.
Identify whether the compound O=C(/C=C/C=C/c1ccc2c(c1)OCO2)N1CCCC1 [1b, piperyline] records IC50 below 50 µM.
0 (no)
